B1: glmS ribozyme (parent)
chain: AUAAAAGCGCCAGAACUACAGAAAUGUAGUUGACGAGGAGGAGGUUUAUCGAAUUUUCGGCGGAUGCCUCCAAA

- Variants of: B1
- testMethodNotes: self-cleavage kobs at 10000 uM GlcN6P; higher = faster cleavage; RNA array
- measurementSetup: with glucosamine-6-phosphate
This sample holds only a part of the variants without activity.
valueType: self-cleavage kobs at 10000 uM GlcN6P

These recorded examples may help you get a feel for the data.
Lookup: I have this variant here, U46G C50G C67G , and I need its recorded self-cleavage kobs at 10000 uM GlcN6P.
Found: < 1e-05 s⁻¹

Lookup: I have this variant here, C11A U46G A52C , and I need its recorded self-cleavage kobs at 10000 uM GlcN6P.
Found: < 1e-05 s⁻¹

Lookup: I have this variant here, G29A A33G , and I need its recorded self-cleavage kobs at 10000 uM GlcN6P.
Found: < 1e-05 s⁻¹

Lookup: I have this variant here, A6C C10U U30G A52G , and I need its recorded self-cleavage kobs at 10000 uM GlcN6P.
Found: < 1e-05 s⁻¹

Lookup: I have this variant here, G9U G29C , and I need its recorded self-cleavage kobs at 10000 uM GlcN6P.
Found: < 1e-05 s⁻¹

Lookup: I have this variant here, A15C U31A G38C G41C , and I need its recorded self-cleavage kobs at 10000 uM GlcN6P.
Found: < 1e-05 s⁻¹

New cases:
Lookup: I have this variant here, U30G A33C A42C , and I need its recorded self-cleavage kobs at 10000 uM GlcN6P.
Found: < 1e-05 s⁻¹

Lookup: I have this variant here, A6U A36C G38A A52U , and I need its recorded self-cleavage kobs at 10000 uM GlcN6P.
Found: < 1e-05 s⁻¹

Lookup: I have this variant here, G7U A12U A52G U55G , and I need its recorded self-cleavage kobs at 10000 uM GlcN6P.
Found: < 1e-05 s⁻¹

Lookup: I have this variant here, U49G U54G C67A , and I need its recorded self-cleavage kobs at 10000 uM GlcN6P.
Found: 0.000194 s⁻¹

Lookup: I have this variant here, A15U A39G A52G , and I need its recorded self-cleavage kobs at 10000 uM GlcN6P.
Found: 0.000571 s⁻¹

Lookup: I have this variant here, C11A A14U , and I need its recorded self-cleavage kobs at 10000 uM GlcN6P.
Found: 9.18e-05 s⁻¹

Lookup: I have this variant here, G43U G63U , and I need its recorded self-cleavage kobs at 10000 uM GlcN6P.
Found: < 1e-05 s⁻¹

Lookup: I have this variant here, A14C G59C G62C , and I need its recorded self-cleavage kobs at 10000 uM GlcN6P.
Found: < 1e-05 s⁻¹
